experiment: MRT in cynomolgus monkey at 0.3 to 1 mg/kg, po; type: ADME, organism-based, Macaca fascicularis; conditions: in vivo, dose 0.3-1 mg/kg
MEASURED_ENDPOINT: MRT
The number alone won't do; follow it with the unit.

Cc1ccc(-c2nc(=O)o[nH]2)c(-c2ccc([C@@H](C)N(CC3CC3)c3nc(C(=O)NS(=O)(=O)C4CC4)c(CC(C)C)s3)cc2)c1; 4.9 h
Cc1ccc(-c2nc(=O)o[nH]2)c(-c2ccc([C@@H](C)N(CC3CC3)c3nc(C(=O)NS(=O)(=O)C4CC4)c(C(C)C)s3)cc2)c1; 5.2 h
Cc1ccc(-c2nc(=O)o[nH]2)c(-c2ccc([C@@H](C)N(CC3CC3)c3nc(C(=O)NS(=O)(=O)C4CC4)c(C4CCC4)s3)cc2)c1; 5.7 h

Batch request: MRT for each of the following compounds.
1. CCc1sc(N(CC2CC2)[C@H](C)c2ccc(-c3cc(C)ccc3-c3nc(=O)o[nH]3)cc2)nc1C(=O)NS(=O)(=O)C1CC1
2. COCCc1sc(N(CC2CC2)[C@H](C)c2ccc(-c3cc(C)ccc3-c3nc(=O)o[nH]3)cc2)nc1C(=O)NS(=O)(=O)C1CC1
3. Cc1ccc(-c2nc(=O)o[nH]2)c(-c2ccc([C@@H](C)N(CC3CC3)c3nc(C(=O)NS(=O)(=O)C4CC4)c(C4CC4)s3)cc2)c1
4. Cc1ccc(-c2nc(=O)o[nH]2)c(-c2ccc([C@@H](C)N(CC3CC3)c3nc(C(=O)NS(=O)(=O)C4CC4)c(C)s3)cc2)c1

Result:
["2.9 h", "4.2 h", "6 h", "4.2 h"]

###

assay: Cmax in cynomolgus monkey at 0.3 mg/kg, po; assay type: ADME, organism-based, Macaca fascicularis; set-up: dose 0.3 mg/kg, route po; details: in vivo
MEASURED_ENDPOINT: Cmax (ng/mL)
Give bare numbers, in ng/mL.

Some compounds with recorded Cmax:
Cc1ccc(-c2nc(=O)o[nH]2)c(-c2ccc([C@@H](C)N(CC3CC3)c3nc(C(=O)NS(=O)(=O)C4CC4)c(C4CC4)s3)cc2)c1; 1370
CCONC(=O)c1ccc(Cl)cc1-c1ccc([C@@H](C)N(CC2CC2)c2nc(C(=O)NS(=O)(=O)C3CC3)c(C3CC3)s2)cc1; 296
CNC(=O)c1ccc(Cl)cc1-c1ccc([C@@H](C)N(CC2CC2)c2nc(C(=O)NS(=O)(=O)C3CC3)c(C3CC3)s2)cc1; 897

Batch request: Cmax for each of the following compounds.
1. CONC(=O)c1ccc(Cl)cc1-c1ccc([C@@H](C)N(CC2CC2)c2nc(C(=O)NS(=O)(=O)C3CC3)c(C3CC3)s2)cc1
2. C[C@H](c1ccc(-c2cc(Cl)ccc2C(N)=O)cc1)N(CC1CC1)c1nc(C(=O)NS(=O)(=O)C2CC2)c(C2CC2)s1

Result:
1: 484; 2: 730

###

assay: Drug concentration in cynomolgus monkey plasma at 1 mg/kg, po after 8 hrs; assay type: ADME, organism-based, Macaca fascicularis
MEASURED_ENDPOINT: concentration at 8 h (ng/mL)
Answers are plain numbers, in ng/mL.

Some compounds with recorded concentration at 8 h:
CCc1sc(N(CC2CC2)[C@H](C)c2ccc(-c3cc(C)ccc3-c3nc(=O)o[nH]3)cc2)nc1C(=O)NS(=O)(=O)C1CC1; 85.7
CONC(=O)c1ccc(C)cc1-c1ccc([C@@H](C)N(CC2CC2)c2nc(C(=O)NS(=O)(=O)C3CC3)c(C3CC3)s2)cc1; 1010
CCS(=O)(=O)NC(=O)c1nc(N(CC2CC2)[C@H](C)c2ccc(-c3cc(Cl)ccc3-c3nc(=O)o[nH]3)cc2)sc1C; 14
Cc1ccc(-c2nc(=O)o[nH]2)c(-c2ccc([C@@H](C)N(CC3CC3)c3nc(C(=O)NS(=O)(=O)C4CC4)c(CC(C)C)s3)cc2)c1; 772
Cc1ccc(-c2nc(=O)o[nH]2)c(-c2ccc([C@@H](C)N(CC3CC3)c3nc(C(=O)NS(=O)(=O)C4CC4)c(C4CCC4)s3)cc2)c1; 2600

Batch request: concentration at 8 h for each of the following compounds.
1. Cc1sc(N(CC2CC2)[C@H](C)c2ccc(-c3cc(Cl)ccc3-c3nc(=O)o[nH]3)cc2)nc1C(=O)NS(C)(=O)=O
2. Cc1sc(N(CC2CC2)[C@H](C)c2ccc(-c3cc(Cl)ccc3-c3nc(=O)o[nH]3)cc2)nc1C(=O)NS(=O)(=O)C1CCCC1

Result:
1. 4.2
2. 10

###

assay: Drug concentration in cynomolgus monkey plasma at 0.3 mg/kg, po after 8 hrs; type: ADME, organism-based, Macaca fascicularis
Parameter threshold = 100 ng/mL. Response is YES when concentration at 8 h meets or exceeds it, else NO.

Sample answers from the record:
CCONC(=O)c1ccc(Cl)cc1-c1ccc([C@@H](C)N(CC2CC2)c2nc(C(=O)NS(=O)(=O)C3CC3)c(C3CC3)s2)cc1; NO
Cc1ccc(-c2nc(=O)o[nH]2)c(-c2ccc([C@@H](C)N(CC3CC3)c3nc(C(=O)NS(=O)(=O)C4CC4)c(C4CC4)s3)cc2)c1; YES
C[C@H](c1ccc(-c2cc(Cl)ccc2C(N)=O)cc1)N(CC1CC1)c1nc(C(=O)NS(=O)(=O)C2CC2)c(C2CC2)s1; NO

Ask: Tell me whether concentration at 8 h is at least 100 ng/mL here: CONC(=O)c1ccc(Cl)cc1-c1ccc([C@@H](C)N(CC2CC2)c2nc(C(=O)NS(=O)(=O)C3CC3)c(C3CC3)s2)cc1
Result: YES

Ask: Okay, and CNC(=O)c1ccc(Cl)cc1-c1ccc([C@@H](C)N(CC2CC2)c2nc(C(=O)NS(=O)(=O)C3CC3)c(C3CC3)s2)cc1 ?
Result: YES

###

assay: Drug concentration in cynomolgus monkey plasma at 1 mg/kg, po after 8 hrs; format: ADME, organism-based, Macaca fascicularis
Sorting guide: entries reporting concentration at 8 h beneath 20 ng/mL go in the t pile, the rest go in the f pile.

Sample answers from the record:
Cc1ccc(-c2nc(=O)o[nH]2)c(-c2ccc([C@@H](C)N(CC3CC3)c3nc(C(=O)NS(=O)(=O)C4CC4)c(C4CC4)s3)cc2)c1; f
Cc1ccc(-c2nc(=O)o[nH]2)c(-c2ccc([C@@H](C)N(CC3CC3)c3nc(C(=O)NS(=O)(=O)C4CC4)c(C(C)C)s3)cc2)c1; f
Cc1sc(N(CC2CC2)[C@H](C)c2ccc(-c3cc(Cl)ccc3-c3nc(=O)o[nH]3)cc2)nc1C(=O)O; t
COCCc1sc(N(CC2CC2)[C@H](C)c2ccc(-c3cc(C)ccc3-c3nc(=O)o[nH]3)cc2)nc1C(=O)NS(=O)(=O)C1CC1; f

Ask: Record Cc1sc(N(CC2CC2)[C@H](C)c2ccc(-c3cc(Cl)ccc3-c3nc(=O)o[nH]3)cc2)nc1C(=O)NS(=O)(=O)C1CC1 : is its concentration at 8 h strictly below 20 ng/mL?
Result: t

###

biological target: Chemerin-like receptor 1 (Homo sapiens) (UniProt Q99788); details: CAL1
Sequence (Q99788 whole entry): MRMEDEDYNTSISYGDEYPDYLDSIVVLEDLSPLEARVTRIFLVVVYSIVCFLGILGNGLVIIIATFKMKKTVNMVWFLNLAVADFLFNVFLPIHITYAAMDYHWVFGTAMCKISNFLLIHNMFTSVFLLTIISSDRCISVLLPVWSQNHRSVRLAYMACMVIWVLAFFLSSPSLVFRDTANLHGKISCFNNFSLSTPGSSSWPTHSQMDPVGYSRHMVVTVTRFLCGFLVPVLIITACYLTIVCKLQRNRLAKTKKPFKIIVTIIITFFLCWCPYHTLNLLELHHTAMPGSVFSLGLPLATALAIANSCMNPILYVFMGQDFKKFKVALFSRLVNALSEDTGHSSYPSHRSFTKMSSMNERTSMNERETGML
Description: Inhibition of human ChemR23 expressed in CAL-1 cells assessed as reduction in chemerin-induced calcium signaling
MEASURED_ENDPOINT: IC80 (nM)
Give bare numbers, in nM.

Some molecules with recorded IC80:
Cc1sc(N(CC2CC2)[C@H](C)c2ccc(-c3cc(Cl)ccc3-c3nc(=O)o[nH]3)cc2)nc1C(=O)NS(=O)(=O)C1CCCC1; 66
CONC(=O)c1ccc(C)cc1-c1ccc([C@@H](C)N(CC2CC2)c2nc(C(=O)NS(=O)(=O)C3CC3)c(C3CC3)s2)cc1; 38
Cc1ccc(-c2nc(=O)o[nH]2)c(-c2ccc([C@@H](C)N(CC3CC3)c3nc(C(=O)NS(=O)(=O)C4CC4)c(C4CCOC4)s3)cc2)c1 (stereo partly specified); 12
Cc1ccc(-c2nc(=O)o[nH]2)c(-c2ccc([C@@H](C)N(CC3CC3)c3nc(C(=O)NS(=O)(=O)C4CC4)c(C)s3)cc2)c1; 53

Batch request: IC80 for each of the following molecules.
1. Cc1sc(N(CC2CC2)[C@H](C)c2ccc(-c3cc(Cl)ccc3-c3nc(=O)o[nH]3)cc2)nc1C(=O)NS(=O)(=O)C1(C)CC1
2. Cc1ccc(-c2nc(=O)o[nH]2)c(-c2ccc([C@@H](C)N(CC3CC3)c3nc(C(=O)NS(=O)(=O)C4CC4)c(C4CCC4)s3)cc2)c1

Result:
1. 110
2. 130

Batch request: IC80 for each of the following molecules.
1. COc1cccc(-c2sc(N(CC3CC3)[C@H](C)c3ccc(-c4cc(C)ccc4-c4nc(=O)o[nH]4)cc3)nc2C(=O)NS(=O)(=O)C2CC2)c1
2. CCCc1sc(N(CC2CC2)[C@H](C)c2ccc(-c3cc(C)ccc3-c3nc(=O)o[nH]3)cc2)nc1C(=O)NS(=O)(=O)C1CC1
3. C[C@H](c1ccc(-c2cc(Cl)ccc2C(N)=O)cc1)N(CC1CC1)c1nc(C(=O)NS(=O)(=O)C2CC2)c(C2CC2)s1

Result:
[42, 25, 9.8]
